Test system: CST g2.1 (human, UniProt Q2NKJ3;Q9H668;Q86WV5 1-1217;1-368;1-123, N981D;Y983A;CTC1:R978E)
Sequence (Q2NKJ3 whole entry N981D/Y983A, chain 1 of 3): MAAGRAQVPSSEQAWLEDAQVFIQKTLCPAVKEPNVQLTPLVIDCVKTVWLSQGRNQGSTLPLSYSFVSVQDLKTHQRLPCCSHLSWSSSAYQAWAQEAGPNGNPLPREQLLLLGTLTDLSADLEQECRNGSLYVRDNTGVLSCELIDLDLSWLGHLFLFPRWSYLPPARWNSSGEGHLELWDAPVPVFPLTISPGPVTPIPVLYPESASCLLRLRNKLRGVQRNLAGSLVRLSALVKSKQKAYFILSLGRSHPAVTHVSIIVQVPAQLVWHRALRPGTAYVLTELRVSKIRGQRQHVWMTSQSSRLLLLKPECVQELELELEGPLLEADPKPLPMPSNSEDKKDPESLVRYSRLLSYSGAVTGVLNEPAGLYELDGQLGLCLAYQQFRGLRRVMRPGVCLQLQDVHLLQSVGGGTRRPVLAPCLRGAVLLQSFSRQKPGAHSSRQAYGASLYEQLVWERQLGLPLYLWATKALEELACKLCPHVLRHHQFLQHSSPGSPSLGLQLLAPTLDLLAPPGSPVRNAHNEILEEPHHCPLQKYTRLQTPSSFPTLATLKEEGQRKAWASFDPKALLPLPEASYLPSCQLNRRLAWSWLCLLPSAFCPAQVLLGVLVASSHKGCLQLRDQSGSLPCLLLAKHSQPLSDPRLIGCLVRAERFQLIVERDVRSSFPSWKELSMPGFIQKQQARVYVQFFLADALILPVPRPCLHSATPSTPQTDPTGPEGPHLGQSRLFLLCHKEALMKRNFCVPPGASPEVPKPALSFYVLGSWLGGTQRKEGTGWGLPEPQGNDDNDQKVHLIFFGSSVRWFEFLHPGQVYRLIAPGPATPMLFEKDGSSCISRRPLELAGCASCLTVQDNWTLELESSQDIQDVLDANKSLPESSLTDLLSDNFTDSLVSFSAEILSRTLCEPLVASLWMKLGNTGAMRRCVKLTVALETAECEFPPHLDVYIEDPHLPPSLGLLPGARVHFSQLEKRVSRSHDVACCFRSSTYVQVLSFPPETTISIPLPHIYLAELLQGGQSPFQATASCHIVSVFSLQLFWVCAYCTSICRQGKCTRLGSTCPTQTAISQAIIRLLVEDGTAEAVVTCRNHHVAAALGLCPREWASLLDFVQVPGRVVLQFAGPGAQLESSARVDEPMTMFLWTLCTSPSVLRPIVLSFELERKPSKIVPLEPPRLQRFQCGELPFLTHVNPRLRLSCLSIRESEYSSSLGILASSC
Sequence (Q9H668 whole entry, stated change not applied, chain 2 of 3): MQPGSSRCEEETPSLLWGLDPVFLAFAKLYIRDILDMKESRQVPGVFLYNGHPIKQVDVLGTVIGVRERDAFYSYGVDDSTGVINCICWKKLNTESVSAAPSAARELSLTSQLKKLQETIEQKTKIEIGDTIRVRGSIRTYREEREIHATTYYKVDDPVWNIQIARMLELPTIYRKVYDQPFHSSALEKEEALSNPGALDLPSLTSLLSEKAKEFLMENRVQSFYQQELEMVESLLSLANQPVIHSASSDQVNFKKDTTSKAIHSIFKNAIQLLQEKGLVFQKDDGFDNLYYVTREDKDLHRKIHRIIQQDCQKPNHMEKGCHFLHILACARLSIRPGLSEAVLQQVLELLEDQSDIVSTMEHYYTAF
Sequence (Q86WV5 whole entry, stated change not applied, chain 3 of 3): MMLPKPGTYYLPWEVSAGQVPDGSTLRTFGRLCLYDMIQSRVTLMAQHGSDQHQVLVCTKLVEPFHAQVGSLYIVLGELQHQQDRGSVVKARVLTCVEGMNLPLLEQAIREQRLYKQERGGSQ
Assay text: EMSA
Quantity kind: Kd (nM)
Numbers only, in nM.

// returns reported Kd for input TTAGGGTTAGGGTTAGGG (ssDNA) [3xTEL (EMSA)]
210
